Tested on: MCF10A
assay notes: percent viability (nuclei count relative to siNT); higher = more viable cells
measurement context: 20 nM; 72 h
percent viability strictly under 30% means true (1); at 30% or over means false (0).

Prompt: Would you kindly verify if percent viability of UUCACAUUGUGCUACUGUCUGC [hsa-miR-130a-5p] is strictly less than 30%?
Response: false (0)

Prompt: Would you kindly verify if percent viability of CUCUAGAGGGAAGCGCUUUCUG [hsa-miR-519a-5p] is strictly less than 30%?
Response: false (0)

Prompt: Would you kindly verify if percent viability of CUCGGCCGCGGCGCGUAGCCCCCGCC [hsa-miR-4665-3p] is strictly less than 30%?
Response: false (0)

Prompt: Would you kindly verify if percent viability of UUGCUAGUUGCACUCCUCUCUGU [hsa-miR-449c-3p] is strictly less than 30%?
Response: true (1)

Prompt: Would you kindly verify if percent viability of CAGUGGCCAGAGCCCUGCAGUG [hsa-miR-3677-5p] is strictly less than 30%?
Response: true (1)

Prompt: Would you kindly verify if percent viability of GAGUGGGGCUUCGACCCUAACC [hsa-miR-1296-3p] is strictly less than 30%?
Response: false (0)

Prompt: Would you kindly verify if percent viability of UACCACAGGGUAGAACCACGG [hsa-miR-140-3p] is strictly less than 30%?
Response: false (0)

Prompt: Would you kindly verify if percent viability of CAAAACCGCAGUAACUUUUGU [hsa-miR-548at-3p] is strictly less than 30%?
Response: false (0)

Prompt: Would you kindly verify if percent viability of UAAGGAGGGGGAUGAGGGG [hsa-miR-6891-5p] is strictly less than 30%?
Response: false (0)

Prompt: Would you kindly verify if percent viability of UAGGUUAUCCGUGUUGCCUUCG [hsa-miR-154-5p] is strictly less than 30%?
Response: false (0)

Prompt: Would you kindly verify if percent viability of GGAUGGUUGGGGGCGGUCGGCGU [hsa-miR-8069] is strictly less than 30%?
Response: false (0)

Prompt: Would you kindly verify if percent viability of ACUGGACUUAGGGUCAGAAGGC [hsa-miR-422a] is strictly less than 30%?
Response: false (0)

Prompt: Would you kindly verify if percent viability of UCUGCAGGGUUUGCUUUGAG [hsa-miR-1205] is strictly less than 30%?
Response: true (1)

----------
Test system: MCF10A
assay notes: one-nucleolus phenotype percent effect (relative to siNT 0% and siNOL11 100%); higher = more cells with one nucleolus (ribosome biogenesis inhibition)
measurement context: 20 nM; 72 h
metric: one-nucleolus phenotype percent effect (%)
Please give a number only; it is taken to be in %.

Prompt: Recall and state the measured one-nucleolus phenotype percent effect for UGGGAACGGGUUCCGGCAGACGCUG [hsa-miR-1292-5p] .
Response: 13.5

Prompt: Recall and state the measured one-nucleolus phenotype percent effect for UGCGGGGACAGGCCAGGGCAUC [hsa-miR-4749-5p] .
Response: 50.5

Prompt: Recall and state the measured one-nucleolus phenotype percent effect for AAACACCAUUGUCACACUCCAC [hsa-miR-3591-3p] .
Response: 32.5

Prompt: Recall and state the measured one-nucleolus phenotype percent effect for AGCAAGGCGGCAUCUCUCUGAU [hsa-miR-4708-3p] .
Response: 16.1

Prompt: Recall and state the measured one-nucleolus phenotype percent effect for UUUGUAUGGAUAUGUGUGUGUAU [hsa-miR-3149] .
Response: 2.3

Prompt: Recall and state the measured one-nucleolus phenotype percent effect for AAACUAAUCUCUACACUGCUGC [hsa-miR-3129-3p] .
Response: -4.83

Prompt: Recall and state the measured one-nucleolus phenotype percent effect for ACUAAAGGAUAUAGAAGGUUUU [hsa-miR-4509] .
Response: -25.3

Prompt: Recall and state the measured one-nucleolus phenotype percent effect for CCCCUGGGCCGGCCUUGG [hsa-miR-4292] .
Response: 4.18

Prompt: Recall and state the measured one-nucleolus phenotype percent effect for ACUGUUGCUAAUAUGCAACUCU [hsa-miR-367-5p] .
Response: -5.32

Prompt: Recall and state the measured one-nucleolus phenotype percent effect for UUAGUGCAUAGUCUUUGGUCU [hsa-miR-4671-3p] .
Response: -12

Prompt: Recall and state the measured one-nucleolus phenotype percent effect for UGUUGGGAUUCAGCAGGACCAU [hsa-miR-4425] .
Response: 19.2

Prompt: Recall and state the measured one-nucleolus phenotype percent effect for CCUUCACUGUGACUCUGCUGCAG [hsa-miR-6837-3p] .
Response: -30.8

Prompt: Recall and state the measured one-nucleolus phenotype percent effect for UCUCUGGAGGGAAGCACUUUCUG [hsa-miR-518c-5p] .
Response: 33.3

Prompt: Recall and state the measured one-nucleolus phenotype percent effect for UCAGGCCUCUUUCUACCUU [hsa-miR-4650-5p] .
Response: -4.86

Prompt: Recall and state the measured one-nucleolus phenotype percent effect for GUGAGUAGUGGCGCGCGGCGGC [hsa-miR-6869-5p] .
Response: 12.6

Prompt: Recall and state the measured one-nucleolus phenotype percent effect for UAGCAAAAACUGCAGUUACUUU [hsa-miR-548p] .
Response: -21.8

Prompt: Recall and state the measured one-nucleolus phenotype percent effect for GACUGGACAAGCUGAGGAA [hsa-miR-3654] .
Response: -25.9

Prompt: Recall and state the measured one-nucleolus phenotype percent effect for UGACGCCCCUUCUGAUUCUGCCU [hsa-miR-6786-3p] .
Response: 0.306

Prompt: Recall and state the measured one-nucleolus phenotype percent effect for AAAUGGGUGGUCUGAGGCAA [hsa-miR-4506] .
Response: 36.1
